Experiment: molar heat capacity at constant pressure
Conditions: 278 K; 101.33 kPa; Crystal; Large sample (1 g) DSC
Each entry below carries its reported molar heat capacity at constant pressure.
Please reply with the bare figure in J/K/mol and do not write the unit itself.

Worked set:
>  <compound>
CCCCCCCCCCCCCCCCCCCCCC(N)=O [docosanamide]

>  <molar heat capacity at constant pressure, J/K/mol>
523.7

$$$$
>  <compound>
CC(C)(C)C(N)=O [2,2-dimethylpropanamide]

>  <molar heat capacity at constant pressure, J/K/mol>
156.3

$$$$
>  <compound>
CC(C)C(N)=O [2-methylpropanamide]

>  <molar heat capacity at constant pressure, J/K/mol>
144.6

$$$$

Could you now consider this next compound?
Req: Request the reported molar heat capacity at constant pressure associated with CCCC(N)=O [butanamide]
Resp: 139.3

---

Test: molar heat capacity at constant pressure
Conditions: 263 K; 101.33 kPa; Crystal; Large sample (1 g) DSC
observable: molar heat capacity at constant pressure (J/K/mol)
Please reply with the bare figure in J/K/mol and do not write the unit itself.

Worked set:
>  <compound>
CCCC(N)=O [butanamide]

>  <measurementUnit>
J/K/mol

>  <observedValue>
132.4

$$$$
>  <compound>
CC(C)(C)C(N)=O [2,2-dimethylpropanamide]

>  <measurementUnit>
J/K/mol

>  <observedValue>
149.2

$$$$
>  <compound>
CC(C)C(N)=O [2-methylpropanamide]

>  <measurementUnit>
J/K/mol

>  <observedValue>
137.6

$$$$

Req: Request the reported molar heat capacity at constant pressure associated with CCCCCCCCCCCCCCCCCCCCCC(N)=O [docosanamide]
Resp: 493

---

Each entry below carries its reported molar heat capacity at constant pressure.
Experiment: molar heat capacity at constant pressure
Details: 283 K; 101.33 kPa; Crystal; Large sample (1 g) DSC
Please reply with the bare figure in J/K/mol and do not write the unit itself.

Worked set:
>  <molecule>
CCCC(N)=O [butanamide]

>  <measurementUnit>
J/K/mol

>  <molar heat capacity at constant pressure>
141.5

$$$$
>  <molecule>
CC(C)C(N)=O [2-methylpropanamide]

>  <measurementUnit>
J/K/mol

>  <molar heat capacity at constant pressure>
146.5

$$$$
>  <molecule>
CC(C)(C)C(N)=O [2,2-dimethylpropanamide]

>  <measurementUnit>
J/K/mol

>  <molar heat capacity at constant pressure>
158.3

$$$$

Could you now consider this next molecule?
Req: Request the reported molar heat capacity at constant pressure associated with CCCCCCCCCCCCCCCCCCCCCC(N)=O [docosanamide]
Resp: 539.7

---

Assay: molar heat capacity at constant pressure
Details: 243 K; 101.33 kPa; Crystal; Large sample (1 g) DSC
observable: molar heat capacity at constant pressure (J/K/mol)
Please reply with the bare figure in J/K/mol and do not write the unit itself.

Worked set:
>  <compound>
CCCCCCCCCCCCCCCCCCCCCC(N)=O [docosanamide]

>  <measurementUnit>
J/K/mol

>  <molar heat capacity at constant pressure>
449.2

$$$$
>  <compound>
CC(C)C(N)=O [2-methylpropanamide]

>  <measurementUnit>
J/K/mol

>  <molar heat capacity at constant pressure>
127.3

$$$$
>  <compound>
CCCC(N)=O [butanamide]

>  <measurementUnit>
J/K/mol

>  <molar heat capacity at constant pressure>
123

$$$$

Could you now consider this next compound?
Req: Request the reported molar heat capacity at constant pressure associated with CC(C)(C)C(N)=O [2,2-dimethylpropanamide]
Resp: 140.2
